subject.of.test: p50/RelA-FL: p50 subunit (39-350);RelA-RHD (no TAD) (murine;murine, UniProt P25799;Q04207 39-350;19-321, |)
Sequence (P25799 39-350, chain 1 of 2): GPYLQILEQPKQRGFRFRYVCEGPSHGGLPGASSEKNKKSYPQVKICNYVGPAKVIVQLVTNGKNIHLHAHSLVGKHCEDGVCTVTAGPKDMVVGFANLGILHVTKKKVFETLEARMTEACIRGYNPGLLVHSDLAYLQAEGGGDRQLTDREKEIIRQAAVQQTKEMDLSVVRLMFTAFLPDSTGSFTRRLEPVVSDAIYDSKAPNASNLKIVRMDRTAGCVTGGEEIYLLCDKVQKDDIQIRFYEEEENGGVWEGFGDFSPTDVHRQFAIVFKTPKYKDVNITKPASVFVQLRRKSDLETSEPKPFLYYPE
Sequence (Q04207 19-321, chain 2 of 2): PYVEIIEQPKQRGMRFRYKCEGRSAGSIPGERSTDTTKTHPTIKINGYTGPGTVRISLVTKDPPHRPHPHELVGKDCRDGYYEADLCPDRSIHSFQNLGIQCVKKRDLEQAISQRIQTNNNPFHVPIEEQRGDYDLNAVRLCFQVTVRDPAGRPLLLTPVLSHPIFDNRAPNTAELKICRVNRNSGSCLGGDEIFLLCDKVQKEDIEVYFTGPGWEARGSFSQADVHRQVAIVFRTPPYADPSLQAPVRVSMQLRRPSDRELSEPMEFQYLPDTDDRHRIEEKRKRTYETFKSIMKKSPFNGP
run.description: fluorescence anisotropy; SEC buffer 25 mM Tris pH 7.5, 150 mM NaCl, 0.5 mM EDTA, 1 mM DTT (FA buffer not stated explicitly; 5 nM DNA, RT incubation, read at 25 C); EMSA: SEC buffer 1:1
condition.parameters: protein: recombinant;recombinant; tags: N-terminal His6;none; copies: 1;1; label: 5' fluorescein on forward or reverse strand
reported.property: pKd
# pKd is unitless: minus log10 of the molar concentration; print number only

Q: Fill in: pKd of HIV LTR tandem dsDNA (FA) (dsDNA) DNA 1: CAAGGGACTTTCCGCTGGGGACTTTCCAGG DNA 2: CCTGGAAAGTCCCCAGCGGAAAGTCCCTTG is ___
Ans: 8.77
